# Test system: Saccharomyces cerevisiae
# procedureText: protein stability index of tFT-peptide fusion (C-terminal peptide) (PSI (0-1 scale)); higher = more stable (slower turnover)
# assayConditions: genetic background: cdc53-1; temperature: 37 C

| chain | protein stability index |
| --- | --- |
| FLFLSPLALHVS | 0.494 |
| IDLVAFCTIFAL | 0.494 |
| LTACRYVCFLLF | 0.644 |
| SWWISKWVGLNC | 0.778 |
| LAVFSSPELSFP | 0.788 |
| FGLLLVLASALG | 0.438 |

* * *

# Tested on: Saccharomyces cerevisiae
# procedureText: protein stability index of tFT-peptide fusion (C-terminal peptide) (PSI (0-1 scale)); higher = more stable (slower turnover)
# assayConditions: genetic background: das1 deletion; temperature: 30 C
In this section we review reported protein stability index values for a set of sequences.

| chain | studySystem | protein stability index |
| --- | --- | --- |
| FPQLNGLLRLQH [YPR014C C-terminal 12 aa] | Saccharomyces cerevisiae | 0.698 |
| QRTVKQEGNKGG [GZF3 C-terminal 12 aa] | Saccharomyces cerevisiae | 0.712 |
| LKSLKKNLTRDR [MTF2 C-terminal 12 aa] | Saccharomyces cerevisiae | 0.722 |
| GKDRPSRFNSKK [TEX1 C-terminal 12 aa] | Saccharomyces cerevisiae | 0.693 |
| SIHIDDFENENN [YGL036W C-terminal 12 aa] | Saccharomyces cerevisiae | 0.706 |
| EEARQEKSGQES [CRZ1 C-terminal 12 aa] | Saccharomyces cerevisiae | 0.678 |
| VGGIDYIKEFLS [CDA2 C-terminal 12 aa] | Saccharomyces cerevisiae | 0.701 |
| ICRVAIWSAERI [CAT5 C-terminal 12 aa] | Saccharomyces cerevisiae | 0.693 |
| QLQMILFGKKFK [PET9 C-terminal 12 aa] | Saccharomyces cerevisiae | 0.711 |
| IRYSMPYRLASN [YLR264C-A C-terminal 12 aa] | Saccharomyces cerevisiae | 0.686 |
| MRNNNDTTFKSF [YNL013C C-terminal 12 aa] | Saccharomyces cerevisiae | 0.685 |
| DQLEDTSSHDEL [MPD2 C-terminal 12 aa] | Saccharomyces cerevisiae | 0.748 |
| DIIKSIGDSYSI [NSE3 C-terminal 12 aa] | Saccharomyces cerevisiae | 0.69 |
| HPRLCVFSCMMI [YJR128W C-terminal 12 aa] | Saccharomyces cerevisiae | 0.69 |
| SVLSGSAEFVFY [NCA3 C-terminal 12 aa] | Saccharomyces cerevisiae | 0.719 |
| SGWSAKIPVSMI [YCR045W-A C-terminal 12 aa] | Saccharomyces cerevisiae | 0.704 |
| LPRDSAMSAPDI [YMR085W C-terminal 12 aa] | Saccharomyces cerevisiae | 0.705 |
| YSFNKLTMTILY [YER137W-A C-terminal 12 aa] | Saccharomyces cerevisiae | 0.7 |
| VDYKTEPLQPLI [RGI2 C-terminal 12 aa] | Saccharomyces cerevisiae | 0.7 |
| NNLNTNTSTTTQ [MIT1 C-terminal 12 aa] | Saccharomyces cerevisiae | 0.682 |

* * *

In this section we review reported protein stability index values for a set of sequences.
# System: Saccharomyces cerevisiae
# procedureText: protein stability index of tFT-peptide fusion in deletion strain of DAS1 (PSI (0-1 scale)); higher = more stable (slower turnover)
measurementKind: protein stability index

| chain | measurement |
| --- | --- |
| PDKRKHLIKLLN | 0.583 |
| PDKRNHLIKLLL | 0.615 |
| RLIQPLPVQFMN | 0.614 |
| RNIQPLPVQFLN | 0.61 |
| SSMRWTFRYWVN | 0.608 |
| PDKRNHLKKLLN | 0.616 |
| KKHKKGQPQKIN | 0.6 |
| CTSCGDKFRTNN | 0.696 |
| RLIQPLPVQFVN | 0.598 |
| KKHKKKQKQKIN | 0.593 |
| KKHKSGQKQKIN | 0.603 |
| ARWRVGLWRNAS | 0.693 |
| LKILRQKMNDQN | 0.687 |
| PSLAASFWRPVG | 0.677 |
| YKHKKGQKQKIN | 0.607 |
| ARWRVGLWRGAW | 0.686 |
| TRWRVGLWRGAS | 0.602 |
| PDKRNHCIKLLN | 0.585 |
| FVMRWTFRYWVN | 0.272 |
| FSMRWTFRYWVL | 0.457 |
| LVVYLSCVAHIN | 0.0209 |
| ISLAASFWRVVG | 0.663 |
| FSMRWTFRYWVNY | 0.471 |
| RLEQPLPVQFLN | 0.574 |
| PSAAASFWRVVG | 0.678 |
| ARWKVGLWRGAS | 0.673 |
| LKILLQKMNHQN | 0.678 |
| LKILEQKMNHQN | 0.66 |
| PDKRNHLIKLLNW | 0.684 |
| LKILRQKMNHNN | 0.688 |
| LKILRQKNNHQN | 0.687 |
| CTSCGYKFETNN | 0.707 |
| LVVYLSYVACIN | 0.142 |
| CTSMGYKFRTNN | 0.689 |
| FSMRWTFRYSVN | 0.53 |
